Structures can show the parent of a compound that is named as a salt.
Record form. Attribute: melting point. Fill in for each entry.

> print(dat)
                                   compound  measurement.name      test.result
1  CC(=O)Nc1nc(CCc2ccc(NC3=NCCN3)cc2)c(Cc2ccc(S(C)(=O)=O)cc2)s1     melting point    139 to 140 °C
2  CC(=O)Nc1nc(CCc2ccc(NC(=N)N)cc2)c(Cc2ccc(S(C)(=O)=O)cc2)s1     melting point  228 to 229.5 °C
3           CC(=O)Nc1nc(CCc2ccc(CON)cc2)cs1     melting point  130 to 130.5 °C
4  CC(=N)Nc1ccc(CCc2nc(NC(C)=O)sc2Cc2ccc(S(C)(=O)=O)cc2)cc1     melting point    81.5 to 83 °C
5         C=NOCc1ccc(CCc2csc(NC(C)=O)n2)cc1     melting point  136.5 to 137 °C

Hi, could you look up melting point for each item in my list?
1. CC(=O)Nc1nc(CCc2ccc(CC(=N)N)cc2)cs1 (as salt: hydrochloride)
2. CC(=O)Nc1nc(CCc2ccc(C(=O)NC(=N)N)cc2)c(Cc2ccc(S(C)(=O)=O)cc2)s1
3. CC(=O)Nc1nc(CCc2ccc(NC3=NCCS3)cc2)cs1
4. CC(=O)Nc1nc(CCc2ccc(C(=N)N)cc2)cs1.Cl

1: 190.5 to 192 °C; 2: 108 to 109.5 °C; 3: 218 to 219.5 °C; 4: 229.5 to 231 °C

Reference for the values: patent US20080119462A1
